Source of measurements: ChEMBL document CHEMBL1138676

Molecular target: Glucocorticoid receptor (Homo sapiens)
Sequence (P04150 whole entry): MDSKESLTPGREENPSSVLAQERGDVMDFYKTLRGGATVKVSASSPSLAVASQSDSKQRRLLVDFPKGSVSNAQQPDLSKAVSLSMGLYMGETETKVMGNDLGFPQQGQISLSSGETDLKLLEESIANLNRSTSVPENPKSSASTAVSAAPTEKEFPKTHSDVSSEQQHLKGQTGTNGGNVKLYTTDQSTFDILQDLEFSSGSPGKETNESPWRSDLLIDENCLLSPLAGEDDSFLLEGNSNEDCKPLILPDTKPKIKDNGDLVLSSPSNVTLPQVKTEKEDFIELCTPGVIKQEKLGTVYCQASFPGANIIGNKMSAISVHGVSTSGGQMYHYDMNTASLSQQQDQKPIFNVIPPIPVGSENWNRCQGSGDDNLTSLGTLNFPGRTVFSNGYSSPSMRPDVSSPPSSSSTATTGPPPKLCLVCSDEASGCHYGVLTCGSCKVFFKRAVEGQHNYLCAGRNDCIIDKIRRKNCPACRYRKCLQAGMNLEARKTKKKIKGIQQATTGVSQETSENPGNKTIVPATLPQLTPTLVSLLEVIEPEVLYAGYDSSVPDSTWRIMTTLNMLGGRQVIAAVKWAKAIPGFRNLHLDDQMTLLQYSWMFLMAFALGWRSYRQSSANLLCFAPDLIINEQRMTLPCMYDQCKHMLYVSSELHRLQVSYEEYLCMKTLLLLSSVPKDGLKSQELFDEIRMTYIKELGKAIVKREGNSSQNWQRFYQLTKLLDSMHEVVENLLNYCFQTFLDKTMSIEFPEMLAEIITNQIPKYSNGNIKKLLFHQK
Assay: Inhibition of glucocorticoid receptor dependent alkaline phosphatase activity
Type: functional
readout name: Ki (nM)
The reply should be a number in nM, with the unit left off.

Sample records with Ki:
C#C[C@]1(O)CC[C@H]2[C@@H]3CCC4=CC(=O)CCC4=C3[C@@H](c3ccc(N(C)CCOC4CC[C@@]5(C)[C@@H](C4)C[C@@H](O)[C@@H]4[C@@H]5C[C@H](O)[C@]5(C)[C@@H]([C@H](C)CCC(=O)O)CC[C@@H]45)cc3)C[C@@]21C (stereo in doubt; form 2) | 1.1
C#C[C@]1(O)CC[C@H]2[C@@H]3CCC4=CC(=O)CCC4=C3[C@@H](c3ccc(N(C)C(=O)CC[C@H](NC(=O)CC[C@@H](C)[C@H]4CC[C@H]5[C@@H]6[C@H](O)C[C@@H]7C[C@H](O)CC[C@]7(C)[C@H]6C[C@H](O)[C@]45C)C(=O)O)cc3)C[C@@]21C | 250
C#C[C@]1(O)CC[C@H]2[C@@H]3CCC4=CC(=O)CCC4=C3[C@@H](c3ccc(N(C)C(=O)CNC(=O)OC4CC[C@@]5(C)[C@@H](C4)C[C@@H](O)[C@@H]4[C@@H]5C[C@H](O)[C@]5(C)[C@@H]([C@H](C)CCC(=O)O)CC[C@@H]45)cc3)C[C@@]21C (some centres undefined) | 50

Now for the compound whose Ki we want.
Record C#C[C@]1(O)CC[C@H]2[C@@H]3CCC4=CC(=O)CCC4=C3[C@@H](c3ccc(N(C)CCOC4CC[C@@]5(C)[C@H](CC[C@@H]6[C@@H]5C[C@H](O)[C@]5(C)[C@@H]([C@H](C)CCC(=O)O)CC[C@@H]65)C4)cc3)C[C@@]21C (some centres undefined) : what is its Ki with Glucocorticoid receptor (Homo sapiens)? 0.38

====

Measured Ki on Estrogen receptor (Homo sapiens, UniProt P03372) follows.
Sequence (P03372 whole entry): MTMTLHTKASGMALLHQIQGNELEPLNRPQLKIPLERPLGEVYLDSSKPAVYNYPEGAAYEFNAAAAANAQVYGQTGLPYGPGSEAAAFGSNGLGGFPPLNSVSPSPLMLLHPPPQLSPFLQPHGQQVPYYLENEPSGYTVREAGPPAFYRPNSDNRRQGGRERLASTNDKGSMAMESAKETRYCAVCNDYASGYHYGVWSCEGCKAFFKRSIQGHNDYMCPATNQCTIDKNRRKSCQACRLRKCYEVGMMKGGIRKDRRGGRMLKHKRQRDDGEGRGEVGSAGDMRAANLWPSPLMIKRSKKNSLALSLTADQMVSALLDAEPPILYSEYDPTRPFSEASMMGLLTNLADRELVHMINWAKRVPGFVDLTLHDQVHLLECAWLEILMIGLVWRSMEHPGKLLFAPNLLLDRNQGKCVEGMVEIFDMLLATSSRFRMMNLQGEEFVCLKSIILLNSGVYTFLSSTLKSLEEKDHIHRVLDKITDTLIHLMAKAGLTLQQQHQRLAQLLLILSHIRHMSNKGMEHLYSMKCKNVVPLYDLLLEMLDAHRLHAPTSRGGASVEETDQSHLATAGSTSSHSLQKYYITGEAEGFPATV

Sample records with Ki:
C#C[C@]1(O)CC[C@H]2[C@@H]3CCC4=CC(=O)CCC4=C3[C@@H](c3ccc(N(C)CCCC(=O)N(C)C4CC[C@@]5(C)[C@@H](C4)C[C@@H](O)[C@@H]4[C@@H]5C[C@H](O)[C@]5(C)[C@@H]([C@H](C)CCC(=O)O)CC[C@@H]45)cc3)C[C@@]21C (stereo not given in full) | 6.2 nM
C#C[C@]1(O)CC[C@H]2[C@@H]3CCC4=CC(=O)CCC4=C3[C@@H](c3ccc(N(C)CCOCCO[C@H]4CC[C@@]5(C)[C@@H](C4)C[C@@H](O)[C@@H]4[C@@H]5C[C@H](O)[C@]5(C)[C@@H]([C@H](C)CCC(=O)O)CC[C@@H]45)cc3)C[C@@]21C | 14 nM
C#C[C@]1(O)CC[C@H]2[C@@H]3CCC4=CC(=O)CCC4=C3[C@@H](c3ccc(N(C)CCNC(=O)OC4CC[C@@]5(C)[C@@H](C4)C[C@@H](O)[C@@H]4[C@@H]5C[C@H](O)[C@]5(C)[C@@H]([C@H](C)CCC(=O)O)CC[C@@H]45)cc3)C[C@@]21C (stereo not given in full) | > 200 nM
C#C[C@]1(O)CC[C@H]2[C@@H]3CCC4=CC(=O)CCC4=C3[C@@H](c3ccc(N(C)CCOC4CC[C@@]5(C)[C@@H](C4)C[C@@H](O)[C@@H]4[C@@H]5C[C@H](O)[C@]5(C)[C@@H]([C@H](C)CCC(=O)O)CC[C@@H]45)cc3)C[C@@]21C (stereo in doubt; form 2) | 12 nM

What value of measured Ki is listed for C#C[C@]1(O)CC[C@H]2[C@@H]3CCC4=CC(=O)CCC4=C3[C@@H](c3ccc(N(C)C(=O)CNC(=O)OC4CC[C@@]5(C)[C@@H](C4)C[C@@H](O)[C@@H]4[C@@H]5C[C@H](O)[C@]5(C)[C@@H]([C@H](C)CCC(=O)O)CC[C@@H]45)cc3)C[C@@]21C (stereo not given in full) ? 11 nM

====

Listed below: pKi values for each entry.
Target: Mineralocorticoid receptor (Homo sapiens, UniProt P08235)
Sequence (P08235 whole entry): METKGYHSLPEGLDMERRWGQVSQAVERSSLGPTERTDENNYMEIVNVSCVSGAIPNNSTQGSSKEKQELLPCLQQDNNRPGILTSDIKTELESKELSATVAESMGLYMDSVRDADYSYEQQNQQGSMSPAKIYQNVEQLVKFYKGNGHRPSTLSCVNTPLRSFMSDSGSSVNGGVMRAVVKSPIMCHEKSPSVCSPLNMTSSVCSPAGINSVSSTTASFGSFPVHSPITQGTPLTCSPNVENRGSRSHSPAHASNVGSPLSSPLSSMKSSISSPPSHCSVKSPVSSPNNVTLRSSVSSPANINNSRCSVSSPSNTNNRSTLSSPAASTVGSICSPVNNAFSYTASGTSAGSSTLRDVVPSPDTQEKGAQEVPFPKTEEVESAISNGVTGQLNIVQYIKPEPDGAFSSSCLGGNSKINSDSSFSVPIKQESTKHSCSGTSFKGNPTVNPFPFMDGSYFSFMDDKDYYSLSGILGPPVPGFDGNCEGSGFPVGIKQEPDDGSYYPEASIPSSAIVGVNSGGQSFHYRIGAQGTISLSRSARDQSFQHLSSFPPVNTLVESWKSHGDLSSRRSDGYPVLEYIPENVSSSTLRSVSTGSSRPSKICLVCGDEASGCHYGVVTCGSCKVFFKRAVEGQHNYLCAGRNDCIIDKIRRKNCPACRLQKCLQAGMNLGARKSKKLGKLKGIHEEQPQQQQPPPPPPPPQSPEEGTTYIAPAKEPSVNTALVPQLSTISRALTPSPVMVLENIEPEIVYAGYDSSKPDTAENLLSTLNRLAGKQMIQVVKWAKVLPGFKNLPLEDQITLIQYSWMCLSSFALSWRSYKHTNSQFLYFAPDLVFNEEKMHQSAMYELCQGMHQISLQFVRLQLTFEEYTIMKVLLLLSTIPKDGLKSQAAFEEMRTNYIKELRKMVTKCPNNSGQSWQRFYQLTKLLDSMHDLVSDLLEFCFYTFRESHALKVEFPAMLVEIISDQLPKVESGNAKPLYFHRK
Interpret pKi as the negative base-10 log of the concentration measured in mol/L.

Sample records with pKi:
C#C[C@]1(O)CC[C@H]2[C@@H]3CCC4=CC(=O)CCC4=C3[C@@H](c3ccc(N(C)CCOCCO[C@@H]4CC[C@@]5(C)[C@@H](C4)C[C@@H](O)[C@@H]4[C@@H]5C[C@H](O)[C@]5(C)[C@@H]([C@H](C)CCC(=O)O)CC[C@@H]45)cc3)C[C@@]21C | 6.77
C#C[C@]1(O)CC[C@H]2[C@@H]3CCC4=CC(=O)CCC4=C3[C@@H](c3ccc(N(C)CCCS(=O)(=O)N(C)C4CC[C@@]5(C)[C@@H](C4)C[C@@H](O)[C@@H]4[C@@H]5C[C@H](O)[C@]5(C)[C@@H]([C@H](C)CCC(=O)O)CC[C@@H]45)cc3)C[C@@]21C (stereo partly specified) | 6.52
C#C[C@]1(O)CC[C@H]2[C@@H]3CCC4=CC(=O)CCC4=C3[C@@H](c3ccc(N(C)CCOC4CC[C@@]5(C)[C@@H](C4)C[C@@H](O)[C@@H]4[C@@H]5C[C@H](O)[C@]5(C)[C@@H]([C@H](C)CCC(=O)NCC(=O)O)CC[C@@H]45)cc3)C[C@@]21C (stereo partly specified) | 6.29

Now for the compound whose pKi we want.
What value of measured pKi is listed for C#C[C@]1(O)CC[C@H]2[C@@H]3CCC4=CC(=O)CCC4=C3[C@@H](c3ccc(N(C)C(=O)CNC(=O)OC4CC[C@@]5(C)[C@@H](C4)C[C@@H](O)[C@@H]4[C@@H]5C[C@H](O)[C@]5(C)[C@@H]([C@H](C)CCC(=O)O)CC[C@@H]45)cc3)C[C@@]21C (stereo partly specified) ? 6.51
